Below: a set of entries, each annotated with reported AC35.
# Test system: HepG2 viability, CellTiter-Glo ATP luminescence, 72 h
# Protocol Notes: viability loss in human hepatoma cells – cell-based, CellTiter-Glo luminescence, cherry-pick, set 2, cytotoxicity control, dose response (AID 743395)
Measurement Type: AC35

# Molecule, Assay Result
rows = [
    ("CC1=NN(c2ccccc2)C(=O)C1N=Nc1cccc(O)c1 (stereo unspecified)", "19 µM"),
    ("COc1ccc2cc(CN(CC3CCCO3)C(=S)Nc3ccccc3)c(=O)[nH]c2c1 (stereo unspecified)", "13 µM"),
    ("CCOC(=O)c1sc(Nc2nc(C)cc(C)n2)nc1C", "11.3 µM"),
    ("COc1ccc(S(=O)(=O)Nc2cc3c(cc2C(C)=O)OCO3)cc1", "12.9 µM"),
    ("C[C@@H]1CN([C@@H](C)CO)C(=O)Cc2cc(NC(=O)Nc3cccc4ccccc34)ccc2O[C@@H]1CN(C)Cc1ccc(Cl)c(Cl)c1", "14.5 µM"),
    ("O=S(=O)(Cc1ccc(Cl)cc1Cl)c1ccc(Cl)cc1", "11.3 µM"),
    ("Cc1cccc(N(C)C(=O)c2cc3c(=O)[nH]c4ccc(C)cc4c3s2)c1", "4.26 µM"),
    ("CCC(=O)N1CC2(CCN(Cc3ccc(Cl)cc3)CC2)c2c(n(C)c3cc(OC)ccc23)[C@H]1CO", "9.27 µM"),
    ("COc1ccc(O)c(/C=N/NC(=O)c2ccc(N3CCCC3=O)cc2)c1", "2.93 µM"),
    ("CC(=O)Nc1ccc(Nc2c3ccccc3nc3ccccc23)cc1", "5.33 µM"),
    ("O=C1C=CCC(/C=C/c2ccccc2)O1 (stereo unspecified)", "19 µM"),
    ("CCC1=Nc2cc(C(=O)NCC3CCCO3)ccc2Sc2ccc(Cl)cc21 (stereo unspecified)", "10.6 µM"),
    ("COc1ccc([C@H]2C[C@H](O)[C@@H](n3cc(-c4ccc(F)cc4)nn3)CN2Cc2cccs2)cc1", "6.12 µM"),
    ("O=C(C1CC1)N1CC(=O)N2[C@H](CO)[C@@H](c3ccc(-c4ccccc4F)cc3)[C@@H]2C1", "18.9 µM"),
    ("COc1cc(OC)cc(C(=O)OCC(=O)NC(c2ccccc2)c2ccccc2)c1", "16.2 µM"),
    ("Nc1ccc2ccc3cccc[n+]3c2c1", "21.5 µM"),
    ("COc1ccc(S(=O)(=O)N2CC[C@@H]3[C@H](CO)N(C)c4ccc(-c5ccc(F)cc5)cc4[C@@H]32)cc1", "2.21 µM"),
    ("N#CC(C#N)=C1C=C2C=C(N3CCCCCC3)CCC2CC1 (stereo unspecified)", "18 µM"),
    ("COc1cc(C2CC(=O)N(c3ccc(C)cc3)C(=O)C2)cc(OC)c1OC", "10.7 µM"),
    ("Cc1ncc(CO)c(/C=N/Nc2ccc(C(F)(F)F)cn2)c1O", "4.63 µM"),
    ("COC1C(C)OC(OC2CC(C)(O)Cc3cc4c(c(O)c32)C(=O)c2c(O)cc3c(c2C4=O)OC2OC3(C)C(O)C(N(C)C)C2O)C(OC)C1(C)OC (stereo unspecified)", "5.03 µM"),
    ("CCOC(=O)c1c(NC(=O)C2c3ccccc3Oc3ccccc32)sc(C(C)=O)c1C", "17.6 µM"),
    ("COCCCN=C1NN=C(c2cc(C)n(Cc3ccco3)c2C)CS1", "6.71 µM"),
    ("CCN(CC)CCn1c2ccccc2c2nc3ccccc3nc21", "19.9 µM"),
    ("Cc1ccc2[nH]c(-c3ccccc3)cc(=O)c2c1", "5.6 µM"),
    ("COc1ccc(Nc2nc(-c3sc(C)nc3C)cs2)c(OC)c1", "10 µM"),
    ("COC(=O)/C=C/c1ccccc1S(=O)(=O)N(Cc1ccccc1)Cc1ccco1", "15.4 µM"),
    ("CC(=O)Nc1sc2c(c1-c1nc3ccccc3s1)CN(C(C)C)CC2", "3.4 µM"),
    ("COc1cccc2c1C(=O)c1c(O)c3c(c(O)c1C2=O)C[C@@](O)(C(C)=O)C[C@@H]3O[C@H]1C[C@H](N)[C@H](O)[C@H](C)O1", "0.156 µM"),
    ("COc1ccc(S(=O)(=O)N(C(=O)C(C)C)c2ccc3oc(=O)sc3c2)cc1", "17.1 µM"),
    ("CCCC(=O)NC(c1ccc(C(C)C)cc1)c1ccc2cccnc2c1O (stereo unspecified)", "0.948 µM"),
    ("O=C(C[C@@H]1CC[C@H]2[C@@H](COC[C@H](O)CN2Cc2ccc3c(c2)OCO3)O1)Nc1ccc(-c2ccccc2)cc1", "16.8 µM"),
    ("CCSC(=O)N1c2ccc(OC)cc2C=CC1C#N (stereo unspecified)", "7.54 µM"),
    ("O=C(O)c1ccccc1-c1c2cc(I)c(=O)c(I)c-2oc2c(I)c(O)c(I)cc12", "8.34 µM"),
    ("NC(=S)NN=Cc1nccc2c(N)cccc12", "4.16 µM"),
    ("CC(=NNC(=S)Nc1ccc(C)cc1)c1ccccn1", "0.123 µM"),
    ("COc1ccc(NC(=O)c2nc(C)c(C3(C)CC(c4ccccc4)=NO3)s2)cc1 (stereo unspecified)", "17.1 µM"),
    ("O=C(CN1CCCC1)N/N=C/c1c(O)ccc2ccccc12", "12.6 µM"),
    ("Cc1nc(N)[nH]c(=O)c1CCCNS(=O)(=O)c1ccc([N+](=O)[O-])cc1", "17.1 µM"),
    ("CC(C)N1CCc2c(sc(NC(=O)c3ccc([N+](=O)[O-])o3)c2C(N)=O)C1", "4.77 µM"),
    ("COc1cccc(-c2cc3nc(-c4ccccc4)cc(=O)n3[nH]2)c1", "7.55 µM"),
]
